System: RARg homodimer (NR concentration 270 nM)
Test: PBM binding z-score (relative to random genomic background probes); higher = stronger binding; sequences stand for … in GC…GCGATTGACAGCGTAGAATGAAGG
Assign t whenever PBM binding z-score does not fall below 1; assign f whenever it does.

1. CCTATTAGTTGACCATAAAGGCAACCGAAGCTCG : f
2. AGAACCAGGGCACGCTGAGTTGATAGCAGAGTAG : t
3. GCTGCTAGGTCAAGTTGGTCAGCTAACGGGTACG : t
4. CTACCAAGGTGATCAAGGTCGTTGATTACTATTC : f
5. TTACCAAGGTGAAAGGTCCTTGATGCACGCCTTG : f
6. AGAACGAGGCCAATGAGTTGATAGCACGGGTGGC : f
7. TCTAGTTGGTCAAAGGTCCCACACTCGAAATGCG : t
8. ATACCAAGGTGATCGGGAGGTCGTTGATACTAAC : f
9. ACTCGGAGGACAACGGTCAGAGCTACGCCAGTGA : t
10. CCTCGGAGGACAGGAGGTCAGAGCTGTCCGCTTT : t
11. TCTGGTAGATCAATAGAGGTTAAGAAAGTGCGCT : f
12. CGTCCAGGGTCATAGGAGGTCAGTGAAGACAGAT : t

* * *

PBM binding z-score values for the sequences below.
System: RARa homodimer (NR concentration 270 nM)
Test: PBM binding z-score (relative to random genomic background probes); higher = stronger binding; sequences stand for … in GC…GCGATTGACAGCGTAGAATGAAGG
quantity-name: PBM binding z-score

1. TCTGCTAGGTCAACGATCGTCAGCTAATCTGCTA : -1.13
2. CCTATTAGTTGACCATAAGGGCAAGCGAAGCTCG : 1.9
3. TCATATAGATAAAGGTGAAAGTCGAACGATATGA : 0.832
4. TAGCCTAGGTCATGCGGGCTAGTATAGTGTCGGC : -0.868
5. TCTTGTTGATCAAGCAGGTTAAGAAAGCCTGAGT : -0.0111
6. TCTATTAGTTGTTTAGGGCAACCGAAACAGCGGA : 1.2
7. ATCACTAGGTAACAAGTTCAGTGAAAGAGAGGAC : 1.41
8. CCGACTGGGGCACGGTTACCATAACGCACAGCCA : -0.261
9. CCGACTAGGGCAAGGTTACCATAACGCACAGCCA : 0.218
10. AGAACGAGGGCAATGAGCTGATAGCACGGGTGGC : -0.301
11. TCTGCTAGGTCAGATGGTCAGCTAACGAGCTGCC : -1.27
12. CTAACTAGGTCAAGAGGTCAAAGTCCGCTTCCCG : 1.67
13. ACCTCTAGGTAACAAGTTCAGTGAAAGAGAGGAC : -0.291
14. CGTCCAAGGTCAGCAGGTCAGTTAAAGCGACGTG : 1.05
15. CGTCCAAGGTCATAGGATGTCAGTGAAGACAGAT : 0.89
16. ATCTCCAGGTAAGACTCAGTTCAGTGAAGAACGC : 0.892
17. TGAATGAGGTTAAAAGATCAGGGAACGTTGCAAA : 0.336
18. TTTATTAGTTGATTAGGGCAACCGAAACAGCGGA : 2.38
19. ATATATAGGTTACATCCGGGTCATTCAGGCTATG : 1.77
20. GCAGACAGGTCAAACGCAGGTAACTCAGGGTGGC : -0.318
21. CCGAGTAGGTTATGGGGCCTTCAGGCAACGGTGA : 0.0148
22. CATACAGGGTCAGCTAGGCCAGAGGAGGGACGGC : 0.169
23. AGTCAAAGATCAGGACGAGGTAACGTAAAGCACG : 0.445
24. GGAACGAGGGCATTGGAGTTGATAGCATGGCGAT : -0.598
25. CGAACGAGGGCATGAGTTCATAGCAAATGCCGAT : -0.81
26. ATATGTAGGTTATCGGGTGATTCAGTTTGCGCAT : 1.96
